target: T1, HisKIX (His-tagged CBP KIX domain) (UniProt P45481 586-672); test: fluorescence polarization, HisKIX, 25 C
T1 construct: range 586-672; not shown: amino-terminal hexahistidine tag of pET15b
T1 sequence (P45481 586-672): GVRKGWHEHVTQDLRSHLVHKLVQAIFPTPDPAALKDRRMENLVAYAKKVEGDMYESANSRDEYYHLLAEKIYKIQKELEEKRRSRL
Square brackets hold non-standard residues; d marks the D form. Ends that are not written are not given here. pS = N[C@@H](COP(=O)(O)O)C(=O)O
reported_metric: Kd
The reply should consist of the numeric value with the unit placed after it.

Q: Query (binder): RRL[pS]FFYILLDLYLDAPGVC(acetamidofluorescein)-NH2 [peptide C^P (chimeric α-helical portion of the PPKID peptides, residues 15-33, phosphorylated)] ; field requested: Kd
Ans: 2400 nM
